Where a SMILES comes first, the peptide text is derived from it.
Binary call on logP with cut-off 1: strictly below means TRUE, and equality or higher means FALSE.

# count of solved cases: 2
{"MOLECULE": "CCC(C)NC(=O)N1C(=O)N(C)CC1O (stereo unspecified)", "LABEL_VALUE": "FALSE"}
{"MOLECULE": "Cc1cc(CCCCCCCOc2ccc(C3=NCCO3)cc2)on1", "LABEL_VALUE": "FALSE"}

Does Cc1ccc(CO)c(C=NNC(=O)c2cccc(Br)c2)c1O have logP strictly under 1?
FALSE

Does Cc1c(C)c2ccc3occ(C)c3c2oc1=O have logP strictly under 1?
FALSE

Does NC(=O)C1CN(CC(=O)Nc2c(Cl)cccc2Cl)CCN1CCCC(c1ccc(F)cc1)c1ccc(F)cc1 (stereo unspecified) have logP strictly under 1?
FALSE

Does NC(Cc1ccc(O)cc1)C(=O)N1CCCC1C(=O)NCC(=O)NC(Cc1c[nH]c2ccccc12)C(=O)O (stereo unspecified) (H-YPGW-OH; configuration not given here) have logP strictly under 1?
TRUE

Does NC(Cc1cc(I)c(OCCc2ccc(O)cc2)c(I)c1)C(=O)O (stereo unspecified) have logP strictly under 1?
FALSE

Does COCCNC(=O)c1c(C)nc2c3c(c(C(=O)N(C)C)cn12)CCC(c1ccccc1)O3 (stereo unspecified) have logP strictly under 1?
FALSE

Does Cc1ccc(CO)c(C=NNC(=O)c2ccc(C(C)(C)C)cc2)c1O have logP strictly under 1?
FALSE

Does OCCCCCCNc1ncnc2c1ncn2C1OC(CO)C(O)C1O (stereo unspecified) have logP strictly under 1?
TRUE

Does Cc1ccccc1-n1nnnc1N have logP strictly under 1?
TRUE
